meta.source: paper PMC10001324

assay: physchem; conditions: water
property: solubility
Note: a bare number is incomplete; add the unit.

I'd like to know its solubility. The molecule in question is CC(C)Cc1ccc(C(C)C(=O)O)cc1 (stereo not shown)
49 µg/mL

---

assay: Caco-2 permeability assay (Papp, Ap-Bl); assay type: in vitro ADME; conditions: human, Caco-2, KLS, Caco-2, apical to basolateral
property: Papp at 120 min (×10⁻⁶ cm/s)
Enter your answer as a number in ×10⁻⁶ cm/s; do not include the unit.

| compound | recorded result |
| --- | --- |
| C[C@@H](C(=O)O)c1cccc(C(=O)c2ccccc2)c1 [R enantiomer, R-Ketoprofen] | 1.19 |

I'd like to know its Papp at 120 min. The compound in question is C[C@H](C(=O)O)c1cccc(C(=O)c2ccccc2)c1 [S enantiomer, (S)-ketoprofen]
1.19

---

test: Log P / LogD7.4 by pH-metric titration in octanol (SiriusT3); type: physicochemical; settings: pH 7.4
property: logD
// print number alone

I'd like to know its logD. The compound in question is CC(C(=O)O)c1cccc(C(=O)c2ccccc2)c1 (stereo not shown) [Ketoprofen, ketoprofen]
0.12

---

assay: Log P / LogD7.4 by pH-metric titration in octanol (SiriusT3); assay type: physicochemical; details: octanol/ISA water; SiriusT3, octanol
Reported logP values follow for various molecules
// print number alone

| molecule | logP |
| --- | --- |
| CC(C(=O)O)c1cccc(C(=O)c2ccccc2)c1 (centres unmarked) | 3.05 |

// next entry
I'd like to know its logP. The molecule in question is CC(C)Cc1ccc(C(C)C(=O)O)cc1 (centres unmarked)
3.91

---

assay: Log P / LogD7.4 by pH-metric titration in octanol (SiriusT3); type: physicochemical; details: octanol/ISA water, pH 7.4
property: logD
// print number alone

I'd like to know its logD. The compound in question is CC(C)Cc1ccc(C(C)C(=O)O)cc1 (stereo not shown)
0.96
